target_or_system: Prostaglandin E2 receptor EP4 subtype (Homo sapiens)
Sequence (P35408 whole entry): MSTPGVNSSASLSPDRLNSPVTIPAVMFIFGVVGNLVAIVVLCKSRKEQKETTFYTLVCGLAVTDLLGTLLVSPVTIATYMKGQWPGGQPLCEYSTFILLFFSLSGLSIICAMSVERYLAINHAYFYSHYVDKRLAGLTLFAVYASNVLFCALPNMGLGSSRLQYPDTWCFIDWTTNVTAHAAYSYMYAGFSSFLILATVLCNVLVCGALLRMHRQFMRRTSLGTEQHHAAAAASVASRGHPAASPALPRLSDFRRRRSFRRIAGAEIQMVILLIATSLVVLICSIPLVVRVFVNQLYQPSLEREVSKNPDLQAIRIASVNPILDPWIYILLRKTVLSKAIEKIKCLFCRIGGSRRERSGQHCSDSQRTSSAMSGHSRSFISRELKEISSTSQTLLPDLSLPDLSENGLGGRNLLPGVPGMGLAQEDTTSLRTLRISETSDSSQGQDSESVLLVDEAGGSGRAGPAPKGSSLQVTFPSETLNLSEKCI
protocol_summary: hEP4 cAMP Assay
# pIC50 annotations
Note on units: pIC50 is unitless, being -log10 of a concentration expressed in mol/L.

smiles_code	target_or_system	experimental_value
CCOc1cc(-c2cc(NCCc3cc(F)c4sccc4c3)ncn2)ccc1OCCC(=O)O	Prostaglandin E2 receptor EP4 subtype (Homo sapiens)	7.74

Data request: I have this molecule here, `CCCc1cc(-c2cc(NCCc3cc4c(cc3OC)OCCO4)ncn2)ccc1C(=O)O` , and I need its recorded pIC50.
Data returned: 6.61

Data request: I have this molecule here, `COc1cc(-c2cc(NCCc3cc(F)c4sccc4c3)ncn2)ccc1OCCC(=O)O` , and I need its recorded pIC50.
Data returned: 7.54

Data request: I have this molecule here, `CCOc1cc2c(cc1CCNc1cc(-c3ccc(CC(=O)O)c(OC(F)(F)F)c3)ncn1)OCCO2` , and I need its recorded pIC50.
Data returned: 6.72
